Molecular target: JAK3 (catalytic domain, His-tag) (Homo sapiens)
Construct: All four purified enzymes contain only the catalytic domain; His (N); purchased Carna Biosciences, Inc; host or cells: baculovirus expression system
Sequence (P52333 822-1111 limits assumed): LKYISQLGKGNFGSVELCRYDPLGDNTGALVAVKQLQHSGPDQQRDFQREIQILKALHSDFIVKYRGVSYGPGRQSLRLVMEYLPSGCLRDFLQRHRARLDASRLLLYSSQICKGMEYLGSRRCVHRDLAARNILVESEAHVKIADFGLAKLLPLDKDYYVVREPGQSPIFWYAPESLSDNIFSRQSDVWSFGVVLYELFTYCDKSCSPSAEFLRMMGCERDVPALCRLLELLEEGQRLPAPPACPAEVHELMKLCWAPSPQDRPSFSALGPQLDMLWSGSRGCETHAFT
Assay: JAK kinase assay (HTRF, phosphorylation of TK substrate-biotin), JAK3
Format: biochemical
Conditions: HTRF assay, ATP at Km (2 μM); read-out: JAK3 kinase inhibitory activity (EC50 indicator)
For each entry below, report its EC50 value.

*Q* Recorded EC50 of "NS(=O)(=O)c1ccc(-c2ccc(C(=O)N3CCN(c4ncnc5[nH]ccc45)CC34CC4)o2)cc1" , please.
*A* 100 to 500 nM

*Q* Could you tell me which EC50 is on file for "O=C(c1ccc(-c2ccccc2)s1)N1CCN(c2ncnc3[nH]ccc23)CC12CC2" ?
*A* 100 to 500 nM

*Q* Entry "NS(=O)(=O)Cc1ccc(C(=O)N2CCN(c3ncnc4[nH]ccc34)CC23CC3)cc1" : reported EC50 = ?
*A* < 100 nM

*Q* Requested field: EC50. Item: "N#CCc1ccc(CC(=O)N2CCN(c3nc(N)nc4[nH]ccc34)CC23CC3)cc1"
*A* 100 to 500 nM

*Q* Fill in: EC50 of "O=C(Cc1cc(Br)cs1)N1CCN(c2ncnc3[nH]ccc23)CC12CC2" is ___
*A* < 100 nM

*Q* Need EC50 of "COc1cnc2[nH]ccc2c1N1CCN(C(=O)c2ccccc2)C2(CC2)C1" , thanks.
*A* 100 to 500 nM

*Q* // lookup EC50 for "N#Cc1cccc(CC(=O)N2CCN(c3ccnc4[nH]ccc34)CC23CC3)c1"
*A* > 500 nM

*Q* Return reported EC50; argument: "Cc1nc2ccccc2nc1C(=O)N1CCN(c2ncnc3[nH]ccc23)CC12CC2"
*A* < 100 nM

* * *

Target: TYK2 (aa 871-1187, catalytic domain, GST-tag) (Homo sapiens)
Construct: JAK1 (aa 850-1154) and TYK2 (aa 871-1187) are expressed with an N-terminally fused GST-tag; GST (N); purchased Carna Biosciences, Inc; host or cells: baculovirus expression system
Sequence (P29597 871-1187): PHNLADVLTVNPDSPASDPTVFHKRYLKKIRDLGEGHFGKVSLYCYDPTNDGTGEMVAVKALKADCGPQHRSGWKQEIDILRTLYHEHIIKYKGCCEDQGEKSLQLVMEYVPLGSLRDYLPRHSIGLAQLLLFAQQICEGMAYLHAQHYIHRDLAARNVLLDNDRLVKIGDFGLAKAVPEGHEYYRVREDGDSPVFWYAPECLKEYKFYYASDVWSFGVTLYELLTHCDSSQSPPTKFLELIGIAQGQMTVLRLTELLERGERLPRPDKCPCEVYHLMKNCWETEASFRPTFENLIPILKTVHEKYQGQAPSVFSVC
Assay: JAK kinase assay (HTRF, phosphorylation of TK substrate-biotin), TYK2
Type: biochemical
Conditions: HTRF assay, ATP at Km (13 μM); read-out: TYK2 kinase inhibitory activity (EC50 indicator)
Give EC50 for every item shown.

*Q* Look up EC50: "NS(=O)(=O)c1csc(C(=O)N2CCN(c3ncnc4[nH]ccc34)CC23CC3)c1"
*A* < 100 nM

*Q* Dear colleague, I am looking for the recorded EC50 of the following molecule: "N#Cc1ccccc1C(=O)N1CCN(c2ncnc3[nH]ccc23)CC12CC2"
*A* 100 to 500 nM

*Q* Give its EC50 value. Item: "O=C(c1cccc2[nH]ccc12)N1[C@@H]2CC[C@H]1CN(c1ncnc3[nH]ccc13)C2"
*A* 100 to 500 nM

*Q* Which EC50 is reported for this molecule? "O=C(c1cc2ccccc2[nH]1)N1[C@@H]2CC[C@H]1CN(c1ncnc3[nH]ccc13)C2"
*A* > 500 nM

*Q* Entry "Cc1c[nH]c2ncnc(N3CCN(C(=O)Cc4ccc(F)cc4)C4(CC4)C3)c12" : reported EC50 = ?
*A* > 500 nM

*Q* What value of measured EC50 is listed for "COc1cccc(C(=O)N2CCN(c3ncnc4[nH]ccc34)CC23CC3)c1OC" ?
*A* > 500 nM

*Q* Quick check: EC50 of "N#Cc1cccc(C(=O)N2CCN(c3nc(N)nc4[nH]ccc34)CC23CC3)c1" ?
*A* 100 to 500 nM

*Q* Give the measured EC50 of "NS(=O)(=O)c1ccc(-c2ccc(C(=O)N3CCN(c4ncnc5[nH]ccc45)CC34CC4)o2)cc1" .
*A* 100 to 500 nM

*Q* Consider the molecule shown here: "N#Cc1ccc(C(=O)N2[C@@H]3CC[C@@H]2CN(c2ncnc4[nH]ccc24)C3)c(F)c1" What is its recorded EC50?
*A* > 500 nM

*Q* Look up EC50 for this molecule: "Cc1nccnc1C(=O)N1CCN(c2ncnc3[nH]ccc23)CC12CC2"
*A* < 100 nM

*Q* Fill in the blank: the reported EC50 of "O=C(c1cnccn1)N1[C@@H]2CC[C@H]1CN(c1ncnc3[nH]ccc13)C2" is ____.
*A* > 500 nM

*Q* Can you look up the measured EC50 of "Cc1sc(C(=O)N2CCN(c3ncnc4[nH]ccc34)CC23CC3)cc1S(N)(=O)=O" for me?
*A* < 100 nM

*Q* Recorded EC50 of "O=C(c1ccc2[nH]c(=O)ccc2c1)N1[C@@H]2CC[C@@H]1CN(c1ncnc3[nH]ccc13)C2" , please.
*A* > 500 nM

*Q* Bench note: what EC50 did "CNS(=O)(=O)c1csc(C(=O)N2CCN(c3ncnc4[nH]ccc34)CC23CC3)c1" show?
*A* < 100 nM

*Q* Consider the molecule shown here: "COC(=O)c1cc2c(N3CCN(C(=O)Cc4ccc(F)cc4)C4(CC4)C3)ncnc2[nH]1" What is its recorded EC50?
*A* > 500 nM

*Q* # query: EC50 of entry "CNS(=O)(=O)c1csc(C(=O)N2CCN(c3ncnc4[nH]ccc34)CC23CC3)c1C"
*A* 100 to 500 nM

*Q* Which EC50 is reported for this molecule? "Cc1c[nH]c2ncnc(N3CCN(C(=O)Cc4ccc(CC#N)cc4)C4(CC4)C3)c12"
*A* > 500 nM

*Q* Could you tell me which EC50 is on file for "COc1cnc2[nH]ccc2c1N1CCN(C(=O)c2ccccc2)C2(CC2)C1" ?
*A* > 500 nM

*Q* Record request: EC50 value, item "O=C(c1ccc(S(=O)(=O)C2CCCC2)cc1)N1CCN(c2ncnc3[nH]ccc23)CC12CC2"
*A* > 500 nM

*Q* Request the reported EC50 associated with "CNS(=O)(=O)c1cc(C(=O)N2CCN(c3ncnc4[nH]ccc34)CC23CC3)sc1C"
*A* 100 to 500 nM

*Q* Requested field: EC50. Item: "COc1cc(C(=O)N2CCN(c3ncnc4[nH]ccc34)CC23CC3)ccc1S(N)(=O)=O"
*A* < 100 nM

*Q* I have this molecule here, "O=C(c1ccc(OC(F)(F)F)cc1)N1CCN(c2ccnc3[nH]ccc23)CC12CC2" , and I need its recorded EC50.
*A* > 500 nM

*Q* For the molecule "CS(=O)(=O)c1ccc(C(=O)N2CCN(c3ncnc4[nH]ccc34)CC23CC3)cc1" , what EC50 is on record?
*A* 100 to 500 nM

*Q* # get_value(readout='EC50', item= "O=C([C@H]1CCCc2ccccc21)N1CCN(c2ncnc3[nH]ccc23)CC12CC2" )
*A* > 500 nM

*Q* // returns reported EC50 for input "COc1cc(S(N)(=O)=O)ccc1C(=O)N1CCN(c2ncnc3[nH]ccc23)CC12CC2"
*A* 100 to 500 nM

*Q* Reported EC50 for "N#CCCC(=O)N1CCN(c2ncnc3[nH]cc(Cl)c23)CC12CC2" : what is it?
*A* > 500 nM

*Q* Would you mind telling me what EC50 value was observed for "O=C(c1ccc(S(=O)(=O)NCc2ccco2)cc1)N1CCN(c2ncnc3[nH]ccc23)CC12CC2" ?
*A* 100 to 500 nM

*Q* Sample "O=C(c1ccc(S(=O)(=O)NCCc2cccs2)cc1)N1CCN(c2ncnc3[nH]ccc23)CC12CC2" — what was its EC50?
*A* 100 to 500 nM

*Q* // lookup EC50 for "Cc1sc(C(=O)N2CCN(c3ncnc4[nH]ccc34)CC23CC3)cc1Br"
*A* < 100 nM

*Q* # EC50 lookup, item "N#Cc1ccc2[nH]c(C(=O)N3CCN(c4ncnc5[nH]ccc45)CC34CC4)cc2c1"
*A* 100 to 500 nM

*Q* Quick one: EC50 for "O=C(Cc1cc(Br)cs1)N1CCN(c2ncnc3[nH]ccc23)CC12CC2" ?
*A* 100 to 500 nM

*Q* Fill blank: measured EC50 of the molecule "Cc1c[nH]c2ncnc(N3CCN(C(=O)CCCC#N)C4(CC4)C3)c12" is ____.
*A* > 500 nM
